Tested on: UACC-257
Assay: NCI tumour cell line growth inhibition, 48 h
Activity calls are given as the source filed them. No stated cut-off is given here; in the data, active = GI50 up to about 1.1 µM and inactive = higher.
TEST READOUT: GI50

| COMPOUND | TEST READOUT | RESULT |
| --- | --- | --- |
| O=C1c2ccccc2C(=O)N1CCn1nc(-c2ccccc2)cc(-c2ccccc2)c1=O | GI50 | > 100 µM (inactive) |
| CC1(C)CCc2cc3c(cc2O1)OCCC3=O | GI50 | > 100 µM (inactive) |
| NCCCC[C@H](N)C(=O)Nc1ccc(-c2nc3ccccc3s2)cc1Cl | GI50 | 14.1 µM (inactive) |
| O=C1Nc2ccc(Br)cc2/C1=N/Nc1ccc([N+](=O)[O-])cc1[N+](=O)[O-] | GI50 | 3.89 µM (inactive) |
| O=C(CC(=O)N1N=C(N2CCCCC2)CC1c1ccccc1)Nc1ccc(Cl)cc1 (stereo not given) | GI50 | > 100 µM (inactive) |

----------
Below: a set of entries, each annotated with reported GI50.
System: SK-OV-3
Assay: NCI tumour cell line growth inhibition, 48 h
Calls of active or inactive are those of the source. Cut-off read from the data, not from the text of the source: active = GI50 up to about 1.1 µM and inactive = higher.
TEST READOUT: GI50

| COMPOUND | RESULT |
| --- | --- |
| COc1cc2c(cc1OC)CC1c3cc(OC)c(OC)cc3CCN1CC2 (stereo unspecified) | > 100 µM (inactive) |
| Cc1ccc(S(=O)(=O)NCCSCCSCCNS(=O)(=O)c2ccc(C)cc2)cc1 | 18.4 µM (inactive) |
| Oc1cccc2nc3cc(CN4CCOCC4)c(CN4CCOCC4)cc3nc12 | 50.6 µM (inactive) |
| CN(C)/C(=N\C#N)N(Cc1ccccc1)Cc1ccccc1 | > 100 µM (inactive) |
| CNC(C)Cc1ccc(O)cc1 (stereo unspecified) | > 100 µM (inactive) |
| C=C(CCCCCCCCC)CC(=O)SCCNC(=O)CCNC(=O)C(O)C(C)(C)COP(=O)(O)OP(=O)(O)OCC1OC(n2cnc3c(N)ncnc32)C(O)C1OP(=O)(O)O (stereo unspecified) | > 100 µM (inactive) |
| O=C(O)C1Cc2[nH]c3ccccc3c2C2CCCC12 (stereo unspecified) | > 100 µM (inactive) |
| CCOC(=O)c1ncoc1[C@H]1COC(C)(C)O1 | > 100 µM (inactive) |
| C=C1CC(C)(c2ccc(Nc3nc4ccccc4c4occc34)cc2)OC1=O (stereo unspecified) | 10.8 µM (inactive) |
| NCCN1C(=O)c2ccccc2C1c1ccc(Cl)cc1 (stereo unspecified) | > 100 µM (inactive) |
| COc1cc(C(C)c2cc3c(cc2OCCCCOc2cc4c(cc2C(C)c2cc(OC)c(OC)c(OC)c2)OCO4)OCO3)cc(OC)c1OC (stereo unspecified) | 34.4 µM (inactive) |
| CC1(COS(=O)(=O)OCC2(C)COS(=O)(=O)OC2)COS(=O)(=O)OC1 | > 100 µM (inactive) |
| COc1ccc(C2=N/C(=C\c3ccccc3)C(=O)O2)cc1 | > 100 µM (inactive) |
| O=c1ccn(C2(CO)C=C(CO)C(O)C2O)c(=O)[nH]1 (stereo unspecified) | > 25.7 µM (inactive) |
| CCCCNC(=O)Nc1c(C(N)=O)c2n(c1C(=O)OCC)CCCCC2 | > 100 µM (inactive) |
| Cn1c(=O)c2c(ncn2CCSS(=O)(=O)O)n(C)c1=O | > 100 µM (inactive) |
| COC1=CC(=O)C(C2(OC(C)C)OC(=O)C(Cl)=C2Cl)=CC1=O (stereo unspecified) | > 100 µM (inactive) |
| O=C(Nc1ccccc1)N(C1=NCC(CI)S1)c1ccc(F)cc1F (stereo unspecified) | > 100 µM (inactive) |
| N#Cc1cccc(/C=N/C23CC4CC(CC(C4)C2)C3)c1 | > 100 µM (inactive) |
| O=C1NN=C(c2ccc([N+](=O)[O-])cc2)C1n1nc(-c2ccccc2)c2ccccc2c1=O (stereo unspecified) | > 100 µM (inactive) |
| CN(C)CC(CC1=C(CC(CN(C)C)N(C)C)CCC1)N(C)C (stereo unspecified) | > 100 µM (inactive) |
| CNC(=O)OCC1C2=C(C(=O)C(C)=C(N)C2=O)N2CC3C(N3C)C12OC (stereo unspecified) | 28.9 µM (inactive) |
| C#C[C@]1(O)CC[C@H]2[C@@H]3CCC4=C/C(=N\OCCN5CCCCC5)CC[C@]4(C)[C@H]3CC[C@@]21C | 16 µM (inactive) |
| COc1cc(/C=C2\CCC(C)(CN(C)C)C2=O)cc(OC)c1OC (stereo unspecified) | > 100 µM (inactive) |
| C[N+](C)(C)CC1CCc2ccccc2C1=O (stereo unspecified) | 18.6 µM (inactive) |
| COc1ccc(S(=O)(=O)N/N=C/c2cc(I)cc([N+](=O)[O-])c2O)cc1OC | 32.4 µM (inactive) |
| C=C1C(=O)OC2/C=C(/C)C3(O)OC(C)(CC(OC(=O)C(C)C)C12)CC3OC(C)=O (stereo unspecified) | 7.59 µM (inactive) |
| Cc1cc(S(=O)(=O)NC2=Nc3ccc(Cl)cc3C(c3ccccc3)N2)c(S)cc1Cl (stereo unspecified) | > 100 µM (inactive) |
| CO/C=C(/C(=O)OC)c1ccccc1[C@H]1C[C@@H]1c1ccc(OC)cc1 | 17.8 µM (inactive) |
| C=CCOC1=C(OC(C)=O)C(C2COC(C)(C)O2)OC1=O (stereo unspecified) | > 100 µM (inactive) |
| CC1CN(C(=O)CN2CCC(CCCCN(C)C)CC2)c2ccccc2NC1=O (stereo unspecified) | > 100 µM (inactive) |
| Cn1cc(-c2ccc3c4ccccc4n(C)c3c2)c2ccccc21 | > 100 µM (inactive) |
| O=C(O)CP(=S)(S)c1ccccc1 (stereo unspecified) | > 100 µM (inactive) |
| CCOC1=NC(C(F)(F)F)(C(F)(F)F)N=C(N2CCOCC2)O1 | > 100 µM (inactive) |
| CN(C)C(=O)/C=C/c1c[nH]c(=O)[nH]c1=O | > 254 µM (inactive) |
| OC1CN2CCS[C@H]2C(O)C1O (stereo partly specified) | > 100 µM (inactive) |
| COc1cc2c(c3c1c(=O)c1ccccc1n3C)C=CC1(CCCC1)O2 | 21.6 µM (inactive) |
| CC(=O)c1ccc2c(c1)c1c(C)c3c[n+](C)ccc3c(C)c1n2C | 16.1 µM (inactive) |
| Cc1nc(-c2nc([N+](=O)[O-])c([N+](=O)[O-])[nH]2)cs1 | > 100 µM (inactive) |
| CCOC(=O)CCC(C(=O)OCC)n1nnc2ccc(Nc3c(C)[n+]([O-])c4ccc(Cl)cc4[n+]3[O-])cc21 (stereo unspecified) | 60.1 µM (inactive) |
| Cn1cc(NC(=O)Nc2cc(C(=O)Nc3cc(C(=O)Nc4ccc5cc(S(=O)(=O)O)cc(S(=O)(=O)O)c5c4)n(C)c3)n(C)c2)cc1C(=O)Nc1cc(C(=O)Nc2ccc3cc(S(=O)(=O)O)cc(S(=O)(=O)O)c3c2)n(C)c1 | > 100 µM (inactive) |
